Documented IC50 across a set of compounds
System: HCV replicon 1AY93H
test_protocol: microbe, parasite or virus in culture
Type: cell-based, Hepatitis C virus (HCV)
experimental_conditions: read-out: 1A Y93H IC50; replicon 1AY93H; Replicon Assay A
# value in nM; strip the unit string

CCOC(C)[C@H](NC(=O)OC)C(=O)N1CCC[C@H]1c1ncc(-c2cc(F)c3c(c2)OC(c2cc(C)c(C)s2)n2c-3cc3cc(-c4cnc([C@@H]5CCCN5C(=O)[C@@H](NC(=O)OC)C(C)C)[nH]4)ccc32)[nH]1 (single isomer, unassigned) [Compound 80] : 4.87

Alright, here's another compound for you.
Reported IC50 for COC(=O)NC(C(=O)N1CCC[C@H]1c1ncc(-c2ccc3c(c2)cc2n3C(c3ccc(C(F)F)s3)Oc3cc(-c4cnc([C@@H]5CCCN5C(=O)[C@@H](NC(=O)OC)C(C)C)[nH]4)cc(F)c3-2)[nH]1)C1C[C@@H](C)O[C@@H](C)C1 (single isomer, unassigned) [Compound 266] : what is it?
0.003

====

Test system: HCV replicon 2B
test_protocol: microbe, parasite or virus in culture
Format: cell-based, Hepatitis C virus (HCV)
experimental_conditions: read-out: 2B IC50; HCV replicon 2B; Replicon Assay A
Method: To measure cell-based anti-HCV activity of compounds of the present invention, two complimentary assays were employed using various replicons. […] The replicon RNA level was measured using real time PCR (TaqMan® EZ RT-PCR, Applied Biosystems 403028) with the following primers and probes: […] The amount of HCV replicon RNA per cell is quantified using a linear regression curve for a known nanogram (ng) amount of HCV replicon total RNA. […]
Reported IC50 values are given for each entry in this list.
Supply the numeric figure in nM, leaving out any unit text.

Take a look at these entries with their results.
COCc1ccc(C2Oc3cc(-c4cnc([C@@H]5CCCN5C(=O)[C@@H](NC(=O)OC)C(C)C)[nH]4)cc(F)c3-c3cc4cc(-c5cnc([C@@H]6CCCN6C(=O)[C@@H](NC(=O)OC)[C@@H]6C[C@@H](C)O[C@@H](C)C6)[nH]5)ccc4n32)s1 (single isomer, unassigned) [Compound 535] : 0.0736
COC(=O)NC(C(=O)N1[C@@H]2C[C@@H]2C[C@H]1c1ncc(-c2ccc3c(c2)cc2n3C(c3ccc(CC4CC4)s3)Oc3cc(-c4cnc([C@@H]5CCCN5C(=O)[C@@H](NC(=O)OC)C(C)C)[nH]4)cc(F)c3-2)[nH]1)C1CCOC(C)(C)C1 (single isomer, unassigned) [Compound 418] : 0.16
COC(=O)N[C@H](C(=O)N1CCC[C@H]1c1ncc(-c2ccc3c(c2)OC(c2cc4ccccc4s2)n2c-3cc3cc(-c4cnc([C@@H]5C[C@@H](F)CN5C(=O)[C@@H](NC(=O)OC)C5CCOCC5)[nH]4)ccc32)[nH]1)C(C)C (single isomer, unassigned) [Compound 626] : 0.179

Let us move to another entry and its IC50.
Would you kindly share the measured IC50 for COC(=O)N[C@H](C(=O)N1CCC[C@H]1c1ncc(-c2cc(F)c3c(c2)OC(c2cc4ccccc4s2)n2c-3cc3cc(-c4cnc([C@@H]5C[C@H]6C[C@H]6N5C(=O)[C@@H](NC(=O)OC)C(C)C)[nH]4)ccc32)[nH]1)C(C)C (single isomer, unassigned) [Compound 616] ?
0.266
